# assay target: human GPR119 (Homo sapiens)
# Construct: expressed in transfected cells; host or cells: CHO K1
# assay method text: hGPR119 agonistic activity, LANCE Ultra cAMP accumulation assay in CHO K1 cells stably expressing human GPR119
# Format: cell-based
# run parameters: CHO-K1, 1 h; cAMP stimulation % compared to maximal effect of GSK1292263; read-out: GPR119 activation %max (inherent activity)
value kind: Emax (%)

{"molecule": "CC(C)(C)OC(=O)N1C2CCC1CC(CNc1ncnc3c1OCCN3c1ccc(C#N)cc1F)C2 (stereo not shown)", "obs value": 45.9}
{"molecule": "CC(C)(C)OC(=O)N1CCN(C(=O)CN2CCC(Nc3ncnc4c3OCCN4c3ccc(C#N)cc3F)CC2)CC1", "obs value": 100}
{"molecule": "CC(C)(C)OC(=O)N1CCC(Nc2ncnc3c2OCCN3c2ccc(C#N)cc2F)CC1", "obs value": 63.5}
{"molecule": "N#Cc1ccc(N2CCOc3c(NC4CCN(c5ncc(Cl)cn5)CC4)ncnc32)c(F)c1", "obs value": 62.7}
{"molecule": "CC(C)OC(=O)N1CCC(Nc2ncnc3c2OCCN3c2ccc(C#N)cc2F)CC1", "obs value": 66.1}
{"molecule": "CCc1cnc(N2CCC(Nc3ncnc4c3OCCN4c3ccc(C#N)cc3F)CC2)nc1", "obs value": 70.7}
{"molecule": "CC(C)(C)OC(=O)N1C2CCCC1CC(Nc1ncnc3c1OCCN3c1ccc(C#N)cc1F)C2 (stereo not shown)", "obs value": 22.7}

====

# assay target: human GPR119 (Homo sapiens, UniProt Q8TDV5)
# Construct: expressed in transfected cells; host or cells: CHO K1
# Sequence (Q8TDV5 whole entry): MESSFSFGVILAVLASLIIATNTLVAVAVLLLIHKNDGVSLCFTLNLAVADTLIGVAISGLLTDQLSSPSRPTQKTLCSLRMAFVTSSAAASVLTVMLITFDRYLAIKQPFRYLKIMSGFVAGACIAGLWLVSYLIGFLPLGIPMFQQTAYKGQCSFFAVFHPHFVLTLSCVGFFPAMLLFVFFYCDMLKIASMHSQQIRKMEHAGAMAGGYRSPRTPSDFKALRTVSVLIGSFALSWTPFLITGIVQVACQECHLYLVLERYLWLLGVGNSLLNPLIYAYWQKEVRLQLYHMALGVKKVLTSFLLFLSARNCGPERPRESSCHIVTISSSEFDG
# assay method text: hGPR119 agonistic activity, LANCE Ultra cAMP accumulation assay in CHO K1 cells stably expressing human GPR119
# Type: cell-based
# run parameters: human GPR119 in CHO K1 cells, cAMP, 1 h incubation; read-out: GPR119 activation EC50
value kind: EC50 (nM)

{"mol": "CC(C)(C)OC(=O)N1CCN(C(=O)CN2[C@@H]3CC[C@H]2C[C@@H](Nc2ncnc4c2OCCN4c2ccc(C#N)cc2F)C3)CC1", "EC50, nM": 82}
{"mol": "N#Cc1ccc(N2CCOc3c(NC4CCN(c5ncc(Cl)cn5)CC4)ncnc32)c(F)c1", "EC50, nM": 40}
{"mol": "CC(C)(C)OC(=O)N1CCN(C(=O)CN2CCC(Nc3ncnc4c3OCCN4c3ccc(C#N)cc3F)CC2)CC1", "EC50, nM": 90}

a = N#Cc1ccc(N2CCOc3c(N[C@H]4C[C@H]5CC[C@@H](C4)N5c4ncc(Cl)cn4)ncnc32)c(F)c1
b = CC(C)(C)OC(=O)N[C@@H]1CCCN(C(=O)CN2[C@@H]3CC[C@H]2C[C@@H](Nc2ncnc4c2OCCN4c2ccc(C#N)cc2F)C3)C1
c = CCc1cnc(N2CCC(Nc3ncnc4c3OCCN4c3ccc(C#N)cc3F)CC2)nc1
d = CC(C)OC(=O)N1[C@@H]2CC[C@H]1C[C@@H](Nc1ncnc3c1OCCN3c1ccc(C#N)cc1F)C2
e = CCc1cnc(N2[C@@H]3CC[C@H]2C[C@@H](Nc2ncnc4c2OCCN4c2ccc(C#N)cc2F)C3)nc1
Put the entries in order of EC50, starting with the largest number. Dear reader, please state the labels in the requested order. a, e, b, c, d
